The reported numbers originate from paper PMC5540273.

# System: CSNK1A1L
# measurement-parameters: concentration: 1 μM, replicates: in singlicate; n = 1;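 further: KINOMEscan kinase panel screen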
Outcome: T for %Inh of at least 10%; F for anything lower.

compound="O=C1NC(=O)C(N2CCc3ccccc32)=C1c1ccccc1Cl [SB-373598]" label=T
compound="Cc1c(Cn2ccn3c(=O)cc(N4CCOCC4)nc23)cccc1C(F)(F)F [GSK2289044]" label=F
compound="COc1cccc(-c2cc(-c3c[nH]nc3-c3ccccn3)ccn2)c1 [GW680338]" label=F
compound="Cl.Oc1ccc(-c2nc(-c3ccccc3)[nH]c2-c2ccncc2)cc1 [SB-428218]" label=T
compound="O=C(Nc1n[nH]c2nc(-c3nccs3)c(Br)cc12)C1CC1 [SB-742251]" label=T
compound=CC(=O)Nc1nc2cnc(Nc3cc(NC(=O)c4cccc(CCC#N)c4)ccc3C)nc2s1 label=F
compound="COc1ccccc1-c1ccc2c(NC(=O)C3CC3)n[nH]c2n1 [SB-711239]" label=F
compound=CC(C)(C)c1ccc(C(=O)Nc2cn3cc(-c4cccnc4)ccc3n2)cc1 label=T

====

# Test system: PAK7
# measurement-parameters: concentration: 1 μM, replicates: in singlicate; n = 1
%Inh values for the compounds below.
outcome-measure: %Inh (%)

query_smiles=COc1ccc(Nc2nccc(NCCNC(=O)Nc3ccccc3F)n2)cc1 obs_value=0
query_smiles=Cc1ccc(NC(=O)Nc2cc(C(C)(C)C)nn2-c2ccccc2)cc1 obs_value=0
query_smiles=Fc1cc(Cl)ccc1Nc1ccnc2cc(-c3ccc(CN4CCCCC4)o3)ccc12 obs_value=16
query_smiles=COc1ccc(C2=C(Nc3cccc(C(=O)O)c3)C(=O)NC2=O)cc1 obs_value=0
query_smiles=Fc1cccc(COc2nnc(-c3ccc4c(c3)CCO4)o2)c1 obs_value=17
query_smiles=NC(=O)c1nnc2ccccc2c1N obs_value=0
query_smiles=COc1ccccc1-c1ccc2c(NC(=O)C3CC3)n[nH]c2n1 obs_value=4
query_smiles=COC(=O)c1c(-c2ccccc2)c2cc(C(=O)O)ccc2c(=O)n1Cc1ccccc1 obs_value=0
query_smiles=Cc1ccc(NC(=O)Nc2cccc(Cl)c2)cc1-c1ccc(C(=O)Nc2ccncc2)cc1 obs_value=1

====

Listed here: items and their measured %Inh.
# System: VRK2
# measurement-parameters: concentration: 1 μM, replicates: in singlicate; n = 1
outcome-measure: %Inh (%)

compound="O=C(Nc1n[nH]c2nc(-c3nccs3)c(Br)cc12)C1CC1 [SB-742251]" unit_abbrev=% obs_value=0
compound="CS(=O)(=O)c1ccc(-c2nc3n(c2-c2ccncc2)CCC3)cc1 [SKF-105942]" unit_abbrev=% obs_value=12
compound="COc1cc(Nc2nccc(N3CCC(NC(=O)Nc4cc(C)ccc4C)C3)n2)cc(OC)c1OC (stereo not shown) [GSK1379762]" unit_abbrev=% obs_value=0
compound="COc1cccc(NC(=O)NC2CCN(c3ccnc(Nc4ccc(F)cc4)n3)C2)c1 (stereo not shown) [GSK1379721]" unit_abbrev=% obs_value=0
compound=CS(=O)(=O)c1ccc(-c2c(-c3ncn[nH]3)sc(N3CCOCC3)c2C#N)cc1 unit_abbrev=% obs_value=0
compound="O=C(Nc1n[nH]c2nc(-c3nccs3)c(Br)cc12)C1CCCC1 [SB-742609]" unit_abbrev=% obs_value=34
compound="CC1=C(C(=O)Nc2cc3cn[nH]c3cc2F)C(c2ccc(C(F)(F)F)cc2)CC(=O)N1 (stereo not shown) [GSK429286]" unit_abbrev=% obs_value=0
compound="O=c1cc(N2CCOCC2)nc2n(Cc3cccc(Cl)c3Cl)ccn12 [GSK2286295]" unit_abbrev=% obs_value=0
compound="Cc1ccccc1-n1cnc2c(N)ncnc21 [SKF-97510]" unit_abbrev=% obs_value=0
compound="Cc1c(Cn2ccn3c(=O)cc(N4CCOCC4)nc23)cccc1C(F)(F)F [GSK2289044]" unit_abbrev=% obs_value=0
compound="COc1ccccc1-c1ccc2c(NC(=O)C3CC3)n[nH]c2n1 [SB-711239]" unit_abbrev=% obs_value=21
compound="O=C1NC(=O)C(N2CCc3ccccc32)=C1c1ccccc1Cl [SB-373598]" unit_abbrev=% obs_value=0
compound=CC(=O)Nc1nc2cnc(Nc3cc(NC(=O)c4cccc(CCC#N)c4)ccc3C)nc2s1 unit_abbrev=% obs_value=0
compound=Cn1ccc2ncnc(Oc3ccc(Nc4nc5ccccc5[nH]4)cc3)c21 unit_abbrev=% obs_value=0
compound="COc1cc2nccc(Nc3ccc(NC(=O)c4ccc(C)cc4)c(O)c3)c2cc1OC.Cl [GW440132]" unit_abbrev=% obs_value=0
compound="Cc1cc(N2Cc3ccccc3C2)nc(Nc2ccc(S(=O)(=O)N3CCOCC3)cc2)n1.Cl [GSK1669917]" unit_abbrev=% obs_value=0
compound="COc1ccc(Nc2nccc(-c3cccc(NC(=O)c4cc5cc(F)ccc5[nH]4)c3)n2)cc1 [GSK1229782]" unit_abbrev=% obs_value=27
compound="Cc1cccc(-c2cc(Nc3ccncc3)c3ccccc3n2)n1 [GSK223675]" unit_abbrev=% obs_value=0
compound="CCn1c(-c2ccccn2)nc2cnccc21 [SB-736398]" unit_abbrev=% obs_value=26
